What Activity was measured for each of the following?
- Test system: Human immunodeficiency virus 1
- assayProtocol: Binding affinity to HLT-tagged HIV-1 Rev measured after overnight incubation by chemiluminescence analysis relative to IN 118-128
- Set-up: concentration or dose not given beside the values
Square brackets hold non-standard residues; d marks the D form. Peptide text beside a SMILES is read from it. NMeT = CN[C@H](C(=O)O)[C@@H](C)O; NMeS = CN[C@@H](CO)C(=O)O; Sar = CNCC(=O)O

CC(C)[C@H](NC(=O)[C@@H](NC(=O)[C@@H](NC(=O)[C@H](CO)NC(=O)[C@@H](NC(=O)[C@H](Cc1ccccc1)NC(=O)[C@@H](N)CC(N)=O)[C@@H](C)O)[C@@H](C)O)[C@@H](C)O)C(=O)N[C@@H](CCCCN)C(=O)N[C@@H](C)C(=O)O (H-NFTSTTVKA-OH); 152%
CC(C)[C@H](NC(=O)[C@@H](NC(=O)[C@@H](NC(=O)[C@H](CO)NC(=O)[C@@H](NC(=O)[C@H](Cc1ccccc1)NC(=O)[C@H](CC(N)=O)NC(=O)[C@H](CO)NC(=O)CN)[C@@H](C)O)[C@@H](C)O)[C@@H](C)O)C(=O)N[C@@H](CCCCN)C(=O)N[C@H](C)C(=O)O; 137%
CC(C)[C@H](NC(=O)[C@@H](NC(=O)[C@@H](NC(=O)[C@H](CO)NC(=O)[C@@H](NC(=O)[C@@H](Cc1ccccc1)NC(=O)[C@H](CC(N)=O)NC(=O)[C@H](CO)NC(=O)CN)[C@@H](C)O)[C@@H](C)O)[C@@H](C)O)C(=O)N[C@@H](CCCCN)C(=O)N[C@@H](C)C(=O)O; 211%
C[C@@H](O)[C@H](NC(=O)[C@H](CO)NC(=O)[C@@H](NC(=O)[C@H](Cc1ccccc1)NC(=O)[C@H](CC(N)=O)NC(=O)[C@H](CO)NC(=O)CN)[C@@H](C)O)C(=O)O (H-GSNFTST-OH); 0%
CC(C)[C@H](NC(=O)[C@@H](NC(=O)[C@@H](NC(=O)[C@H](CO)NC(=O)[C@@H](NC(=O)[C@H](Cc1ccccc1)NC(=O)[C@H](CC(N)=O)NC(=O)[C@@H](CO)NC(=O)CN)[C@@H](C)O)[C@@H](C)O)[C@@H](C)O)C(=O)N[C@@H](CCCCN)C(=O)N[C@@H](C)C(=O)O; 190%
CC(C)[C@H](NC(=O)[C@@H](NC(=O)[C@@H](NC(=O)[C@H](CO)N(C)C(=O)[C@@H](NC(=O)[C@H](Cc1ccccc1)NC(=O)[C@H](CC(N)=O)NC(=O)[C@H](CO)NC(=O)CN)[C@@H](C)O)[C@@H](C)O)[C@@H](C)O)C(=O)N[C@@H](CCCCN)C(=O)N[C@@H](C)C(=O)O (H-GSNFT[NMeS]TTVKA-OH); 279%
C[C@H](NC(=O)[C@H](CCCCN)NC(=O)[C@H](C)NC(=O)[C@@H](NC(=O)[C@@H](NC(=O)[C@H](CO)NC(=O)[C@@H](NC(=O)[C@H](Cc1ccccc1)NC(=O)[C@H](CC(N)=O)NC(=O)[C@H](CO)NC(=O)CN)[C@@H](C)O)[C@@H](C)O)[C@@H](C)O)C(=O)O (H-GSNFTSTTAKA-OH); 64%
CC(C)[C@H](NC(=O)[C@@H](NC(=O)[C@@H](NC(=O)[C@H](CO)NC(=O)[C@@H](NC(=O)[C@@H](N)Cc1ccccc1)[C@@H](C)O)[C@@H](C)O)[C@@H](C)O)C(=O)N[C@@H](CCCCN)C(=O)N[C@@H](C)C(=O)O (H-FTSTTVKA-OH); 280%

I would be grateful if you could provide Activity for each of the following entries.
1. CC(C)[C@H](NC(=O)[C@@H](NC(=O)[C@@H](NC(=O)[C@H](CO)NC(=O)[C@@H](NC(=O)[C@H](C)NC(=O)[C@H](CC(N)=O)NC(=O)[C@H](CO)NC(=O)CN)[C@@H](C)O)[C@@H](C)O)[C@@H](C)O)C(=O)N[C@@H](CCCCN)C(=O)N[C@@H](C)C(=O)O (H-GSNATSTTVKA-OH)
2. CNCC(=O)N[C@@H](CO)C(=O)N[C@@H](CC(N)=O)C(=O)N[C@@H](Cc1ccccc1)C(=O)N[C@H](C(=O)N[C@@H](CO)C(=O)N[C@H](C(=O)N[C@H](C(=O)N[C@H](C(=O)N[C@@H](CCCCN)C(=O)N[C@@H](C)C(=O)O)C(C)C)[C@@H](C)O)[C@@H](C)O)[C@@H](C)O (H-[Sar]SNFTSTTVKA-OH)
3. CC(C)[C@H](NC(=O)[C@@H](NC(=O)[C@H]([C@@H](C)O)N(C)C(=O)[C@H](CO)NC(=O)[C@@H](NC(=O)[C@H](Cc1ccccc1)NC(=O)[C@H](CC(N)=O)NC(=O)[C@H](CO)NC(=O)CN)[C@@H](C)O)[C@@H](C)O)C(=O)N[C@@H](CCCCN)C(=O)N[C@@H](C)C(=O)O (H-GSNFTS[NMeT]TVKA-OH)

1. 31%
2. 294%
3. 197%

I would be grateful if you could provide Activity for each of the following entries.
1. CC(C)[C@H](NC(=O)[C@@H](NC(=O)[C@@H](NC(=O)[C@H](CO)NC(=O)[C@@H](NC(=O)[C@H](Cc1ccccc1)NC(=O)[C@H](CC(N)=O)NC(=O)[C@@H](N)CO)[C@@H](C)O)[C@@H](C)O)[C@@H](C)O)C(=O)N[C@@H](CCCCN)C(=O)N[C@@H](C)C(=O)O (H-SNFTSTTVKA-OH)
2. CC(C)[C@H](NC(=O)[C@@H](NC(=O)[C@H](C)NC(=O)[C@H](CO)NC(=O)[C@@H](NC(=O)[C@H](Cc1ccccc1)NC(=O)[C@H](CC(N)=O)NC(=O)[C@H](CO)NC(=O)CN)[C@@H](C)O)[C@@H](C)O)C(=O)N[C@@H](CCCCN)C(=O)N[C@@H](C)C(=O)O (H-GSNFTSATVKA-OH)

1. 177%
2. 107%
